Recorded values, source patent US20040018971A1.

relative binding ratio (IC50 of standard peptide / IC50 of test peptide) values for the binders below.
# targetUnderTest: T1, HLA-A*0101 (human)
# T1 construct: Purified HLA molecule, 5 to 500 nM in the assay; also called HLA-A1
# measurementDescription: competition with a 125I-labelled probe peptide for purified HLA-A*0101, gel filtration; ratio against the A*0101 standard peptide 944.02 [..] (25 nM)
Give just the number in ratio; leave the unit off.

Examples with their reported relative binding ratio (IC50 of standard peptide / IC50 of test peptide) follow.
INSERT INTO measurements (binder, number) VALUES
  ('VFETLEEITGY (also called Her2/neu.399) [HER2/neu peptide, position 399, 11 amino acids]', 0.0045),
  ('TLEEITGY (also called Her2/neu.402 (8-mer)) [HER2/neu peptide, position 402, 8 amino acids]', -0.0021),
  ('TCSPQPEY (also called Her2/neu.1132) [HER2/neu peptide, position 1132, 8 amino acids]', -0.0021),
  ('VTACPYNY (also called Her2/neu.296) [HER2/neu peptide, position 296, 8 amino acids]', 0.1),
  ('TLEEITGYLY (also called Her2/neu.402) [HER2/neu peptide, position 402, 10 amino acids]', 1.1);

Continue with the binder presented below.
Challenge: Would you kindly share the measured relative binding ratio (IC50 of standard peptide / IC50 of test peptide) for THDPSPLQRY (also called Her2/neu.1103) [HER2/neu peptide, position 1103, 10 amino acids] ?
Response given: 0.0015
